# assayed_system: T1, human neuropeptide Y2 (NPY2) receptor (human, UniProt P49146 1-381)
# T1 sequence (looked up): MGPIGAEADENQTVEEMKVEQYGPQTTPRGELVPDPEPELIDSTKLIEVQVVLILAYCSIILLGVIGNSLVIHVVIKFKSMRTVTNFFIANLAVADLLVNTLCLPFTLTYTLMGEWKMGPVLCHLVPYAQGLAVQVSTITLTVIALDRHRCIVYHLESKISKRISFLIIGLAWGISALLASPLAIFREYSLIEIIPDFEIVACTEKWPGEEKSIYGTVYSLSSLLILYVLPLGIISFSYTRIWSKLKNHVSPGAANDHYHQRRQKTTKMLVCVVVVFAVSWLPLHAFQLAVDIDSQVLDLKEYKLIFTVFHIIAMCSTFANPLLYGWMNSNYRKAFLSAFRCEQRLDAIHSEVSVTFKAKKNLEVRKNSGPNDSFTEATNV
# test_name: cell-based or functional assay
endpoint_name: EC50, CreLuc assay, 0.5% hP (nM)
The answer is to be given in nM; state only the numeric part.

Which EC50, CreLuc assay, 0.5% hP is reported for this binder? YXEGTFTSDYSIXLEEQAQXAFVQWLIKGGPSSGQSLRHYYNWLTRQRY (Aib at 2, 13, 20; K28 side chain: C20DA-gGlu-Glu-gGlu-gGlu-gGlu-gGlu-eLys; C-terminal NH2) [Compound 8] 11.6

Which EC50, CreLuc assay, 0.5% hP is reported for this binder? YXEGTFTSDYSIXLEKQAQXAFVEWLIKGGPSSGASXRHYXNWLTRQRY (Aib at 2, 13, 20, 37, 41; K28 side chain: C20DA-gGlu-gGlu-Glu-gGlu-gGlu-gGlu-eLys; C-terminal NH2) [Compound 76] 31.5

Which EC50, CreLuc assay, 0.5% hP is reported for this binder? YXEGTFTSDYSIXLEKQAQXAFVQWLIKGGQRSYASLRHYYNWLTRQRY (Aib at 2, 13, 20; K28 side chain: C20DA-gGlu-gGlu-gGlu-gGlu-gGlu-gGlu-eLys; C-terminal NH2) [Compound 3] 4.45

Which EC50, CreLuc assay, 0.5% hP is reported for this binder? YXEGTFTSDYSIXLEKEAQXKFVEWLIKGGPSSGASLRHYYNWLTRQRY (Aib at 2, 13, 20; K28 side chain: C20DA-gGlu-gGlu-gGlu-gGlu-gGlu-gGlu-eLys; C-terminal NH2) [Compound 46] 10.2

Which EC50, CreLuc assay, 0.5% hP is reported for this binder? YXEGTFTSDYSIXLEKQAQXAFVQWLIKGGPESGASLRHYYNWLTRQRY (Aib at 2, 13, 20; K28 side chain: C20DA-gGlu-gGlu-gGlu-gGlu-gGlu-OEG-OEG; C-terminal NH2) [Compound 32] 12.2

Which EC50, CreLuc assay, 0.5% hP is reported for this binder? YXEGTFTSDYSIXLEEEAQXAFVEWLIKGGPSSGASLRHYYNWLTRQRY (Aib at 2, 13, 20; K28 side chain: C20DA-gGlu-gGlu-gGlu-gGlu-gGlu-gGlu-eLys; C-terminal NH2) [Compound 66] 18.8

Origin of measurements: patent US20240247080A1
